Overview of reported normalized growth across a group of molecules:
- experimentalDetails: chemical genetic growth profiling, strain panel (AID 1159580);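 note: tested at 20 µM; growth read once vehicle control cultures reached saturation at 30 °C; 1 = growth at the plate median or of vehicle wells; lower values mean less growth of the strain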
- testContext: S. cerevisiae deletion strains, growth OD, locus YJL166W, strain qcr8, active compounds read low
The whole screen tested about 5,500 compounds, of which about 2,000 (36%) were called active. Inconclusive results (about 18%) are left out. This is one part of the list.

[
  {
    "molecule": "O=C(O)CCCc1ccccc1",
    "normalized growth": "0.992 (inactive)"
  },
  {
    "molecule": "O=C(O)CCCc1ccc(N(CCCl)CCCl)cc1",
    "normalized growth": "1 (inactive)"
  },
  {
    "molecule": "COc1ccc(OC)c(C(O)CNC(=O)CN)c1 (stereo not drawn)",
    "normalized growth": "1 (inactive)"
  },
  {
    "molecule": "COc1ccc(-c2coc3cc(O)ccc3c2=O)c(OC)c1",
    "normalized growth": "0.995 (inactive)"
  },
  {
    "molecule": "O=C(O)c1cc2cc(F)ccc2[nH]1",
    "normalized growth": "1 (inactive)"
  },
  {
    "molecule": "O=C(NC(=O)c1ccccc1Cl)Nc1ccc(OC(F)(F)F)cc1",
    "normalized growth": "1.05 (inactive)"
  },
  {
    "molecule": "O=C(c1ccc(OCCN2CCCCC2)cc1)c1c(-c2ccc(O)cc2)sc2cc(O)ccc12",
    "normalized growth": "0.968 (inactive)"
  },
  {
    "molecule": "CCN1CCCC(OC(=O)C(c2ccccc2)c2ccccc2)C1 (stereo not drawn)",
    "normalized growth": "0.982 (inactive)"
  },
  {
    "molecule": "COc1ccc(-c2coc3cc(O)ccc3c2=O)cc1",
    "normalized growth": "0.951 (inactive)"
  },
  {
    "molecule": "OCCc1ccccc1",
    "normalized growth": "0.989 (inactive)"
  },
  {
    "molecule": "CC1(C)S[C@@H]2[C@H](NC(=O)[C@H](N)c3ccccc3)C(=O)N2[C@H]1C(=O)O",
    "normalized growth": "0.998 (inactive)"
  },
  {
    "molecule": "NCCc1cnc[nH]1",
    "normalized growth": "1.03 (inactive)"
  },
  {
    "molecule": "COc1ccc(-c2coc3cc(O)ccc3c2=O)c(O)c1O",
    "normalized growth": "0.817 (active)"
  }
]
